# Test system: 422866-222-R5-J1-PDC complex spheroids viability;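 further: spheroids exposed to compounds for 7 days; 100% = DMSO vehicle control viability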
# Experiment Summary: Anticancer human tumor 422866-222-R5-J1-PDC patient-derived pancreatic adenocarcinoma cell line growth inhibition [RAS]
# Assay Context: second compound 0.000949 µM; first compound 0.0316 µM; hits give low values
Endpoint: viability, T/C (%)
Unit % implied. Number only.

* CC1(O)CCCC1n1c(=O)c(C(F)F)cc2cnc(NC3CCN(S(C)(=O)=O)CC3)nc21 (stereo not drawn) + CCn1c(-c2cc(N3CCN(C)CC3)cnc2C(C)OC)c2c3cc(ccc31)-c1csc(n1)CC(NC(=O)C1CC1C)C(=O)N1CCCC(N1)C(=O)OCC(C)(C)C2 | 30
* CCC(CC)c1cc(NC2CCC(N)C2)n2nccc2n1 (stereo not drawn) + CCn1c(-c2cccnc2C(C)OC)c2c3cc(ccc31)N1CCOC(CC(NC(=O)C(C(C)C)N(C)C(=O)C3(F)CCN(C(=O)C#CC(C)(C)N(C)C)CC3)C(=O)N3CCCC(N3)C(=O)OCC(C)(C)C2)C1 | 28.4
* CC(=O)OC12COC1CC(O)C1(C)C(=O)C(O)C3=C(C)C(OC(=O)C(O)C(NC(=O)OC(C)(C)C)c4ccccc4)CC(O)(C(OC(=O)c4ccccc4)C21)C3(C)C (stereo not drawn) + CCn1c(-c2cc(N3CCN(C)CC3)cnc2C(C)OC)c2c3cc(ccc31)-c1csc(n1)CC(NC(=O)C1CC1C)C(=O)N1CCCC(N1)C(=O)OCC(C)(C)C2 | 23.3
* O=C(c1ccc(F)c(F)c1Nc1ccc(I)cc1F)N1CC(O)([C@@H]2CCCCN2)C1 + CCn1c(-c2cc(N3CCN(C)CC3)cnc2C(C)OC)c2c3cc(ccc31)-c1csc(n1)CC(NC(=O)C1CC1C)C(=O)N1CCCC(N1)C(=O)OCC(C)(C)C2 | 21.8
* C=CC(=O)Nc1cc(Nc2nccc(-c3cn(C)c4ccccc34)n2)c(OC)cc1N(C)CCN(C)C + CCn1c(-c2cc(N3CCN(C)CC3)cnc2C(C)OC)c2c3cc(ccc31)-c1csc(n1)CC(NC(=O)C1CC1C)C(=O)N1CCCC(N1)C(=O)OCC(C)(C)C2 | 26.4
* CC(C)n1nc(-c2ccc3oc(N)nc3c2)c2c(N)ncnc21 + CCn1c(-c2cccnc2C(C)OC)c2c3cc(ccc31)N1CCOC(CC(NC(=O)C(C(C)C)N(C)C(=O)C3(F)CCN(C(=O)C#CC(C)(C)N(C)C)CC3)C(=O)N3CCCC(N3)C(=O)OCC(C)(C)C2)C1 | 23.1
* CC(=O)OC12COC1CC(O)C1(C)C(=O)C(O)C3=C(C)C(OC(=O)C(O)C(NC(=O)OC(C)(C)C)c4ccccc4)CC(O)(C(OC(=O)c4ccccc4)C21)C3(C)C (stereo not drawn) + CCn1c(-c2cccnc2C(C)OC)c2c3cc(ccc31)N1CCOC(CC(NC(=O)C(C(C)C)N(C)C(=O)C3(F)CCN(C(=O)C#CC(C)(C)N(C)C)CC3)C(=O)N3CCCC(N3)C(=O)OCC(C)(C)C2)C1 | 23.9

Then this molecule:
The recorded viability, T/C for C=CC(=O)N1CCN(c2nc(OCC3CCCN3C)nc3c(F)c(-c4nc(N)cc(C)c4C(F)(F)F)c(Cl)cc23)C(C)C1 (stereo not drawn) + CCn1c(-c2cccnc2C(C)OC)c2c3cc(ccc31)N1CCOC(CC(NC(=O)C(C(C)C)N(C)C(=O)C3(F)CCN(C(=O)C#CC(C)(C)N(C)C)CC3)C(=O)N3CCCC(N3)C(=O)OCC(C)(C)C2)C1 is 23.4
